# test: Study B: plasma pharmacokinetics after single-dose i.v. telavancin 10 mg/kg in subjects with varying renal function
# conditionSummary: both, human, in vivo, iv, 10 mg/kg, t ½ (terminal elimination half-life), study B, single 1-h i.v. infusion telavancin 10 mg/kg; plasma; mild RI (eGFR 60 to 89 mL/min/1.73 m^2), n = 13; mean ± SD
valueKind: half-life
Quick note: unit goes after the number.

Per the records, this compound ( CCCCCCCCCCNCCN[C@@]1(C)C[C@H](O[C@H]2[C@H](Oc3c4cc5cc3Oc3ccc(cc3Cl)[C@@H](O)[C@@H](NC(=O)[C@@H](CC(C)C)NC)C(=O)N[C@@H](CC(N)=O)C(=O)N[C@H]5C(=O)N[C@H]3C(=O)N[C@H](C(=O)N[C@H](C(=O)O)c5cc(O)c(CNCP(=O)(O)O)c(O)c5-c5cc3ccc5O)[C@H](O)c3ccc(c(Cl)c3)O4)O[C@H](CO)[C@@H](O)[C@@H]2O)O[C@@H](C)[C@H]1O ) has half-life equal to 7.8 h

----------
# test: Study B: urinary excretion and renal clearance
# conditionSummary: human, in vivo, iv, 10 mg/kg, Ae0–∞% (percentage of the dose excreted in urine, extrapolated to infinity), moderate renal impairment, mean ± SD
valueKind: dose excreted
Quick note: unit goes after the number.

Per the records, this compound ( CCCCCCCCCCNCCN[C@@]1(C)C[C@H](O[C@H]2[C@H](Oc3c4cc5cc3Oc3ccc(cc3Cl)[C@@H](O)[C@@H](NC(=O)[C@@H](CC(C)C)NC)C(=O)N[C@@H](CC(N)=O)C(=O)N[C@H]5C(=O)N[C@H]3C(=O)N[C@H](C(=O)N[C@H](C(=O)O)c5cc(O)c(CNCP(=O)(O)O)c(O)c5-c5cc3ccc5O)[C@H](O)c3ccc(c(Cl)c3)O4)O[C@H](CO)[C@@H](O)[C@@H]2O)O[C@@H](C)[C@H]1O ) has dose excreted equal to 48.4%

----------
# test: Study B: plasma pharmacokinetics after single-dose i.v. telavancin 10 mg/kg in subjects with varying renal function
# conditionSummary: both, human, in vivo, iv, 10 mg/kg, AUC0–∞, study B, single 1-h i.v. infusion telavancin 10 mg/kg; plasma; severe RI (eGFR 15 to 29 mL/min/1.73 m^2), n = 8; mean ± SD
valueKind: AUC(0-inf) (µg·h/mL)
Give your result in µg·h/mL as a bare value.

Per the records, this compound ( CCCCCCCCCCNCCN[C@@]1(C)C[C@H](O[C@H]2[C@H](Oc3c4cc5cc3Oc3ccc(cc3Cl)[C@@H](O)[C@@H](NC(=O)[C@@H](CC(C)C)NC)C(=O)N[C@@H](CC(N)=O)C(=O)N[C@H]5C(=O)N[C@H]3C(=O)N[C@H](C(=O)N[C@H](C(=O)O)c5cc(O)c(CNCP(=O)(O)O)c(O)c5-c5cc3ccc5O)[C@H](O)c3ccc(c(Cl)c3)O4)O[C@H](CO)[C@@H](O)[C@@H]2O)O[C@@H](C)[C@H]1O ) has AUC(0-inf) equal to 1400

----------
# test: clinical
# conditionSummary: both, human, in vivo, iv, 7.5 mg/kg
valueKind: Cmax
Quick note: unit goes after the number.

Per the records, this compound ( CCCCCCCCCCNCCN[C@@]1(C)C[C@H](O[C@H]2[C@H](Oc3c4cc5cc3Oc3ccc(cc3Cl)[C@@H](O)[C@@H](NC(=O)[C@@H](CC(C)C)NC)C(=O)N[C@@H](CC(N)=O)C(=O)N[C@H]5C(=O)N[C@H]3C(=O)N[C@H](C(=O)N[C@H](C(=O)O)c5cc(O)c(CNCP(=O)(O)O)c(O)c5-c5cc3ccc5O)[C@H](O)c3ccc(c(Cl)c3)O4)O[C@H](CO)[C@@H](O)[C@@H]2O)O[C@@H](C)[C@H]1O [telavancin] ) has Cmax equal to 70.6 µg/mL

Each recorded value in this set is attributed to paper PMC4430595.
